# System: NCI-H1648;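 further: cell viability assay measuring inhibition of NCI-H1648 cell growth, from the Sanger screening data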
# PROTOCOL_TEXT: cells
# Format: functional, cell-based, Homo sapiens
# RUN_PARAMETERS: Homo sapiens, NCI-H1648
# Description: SANGER: Inhibition of human NCI-H1648 cell growth in a cell viability assay.
pIC50: −log10 of the molar value.
QUANTITY_MEASURED: pIC50

[
  {
    "MOLECULE": "COc1cc2ncn(-c3cc(OCc4ccccc4S(C)(=O)=O)c(C#N)s3)c2cc1OC [GSK-319347A]",
    "TARGET_DESC": "NCI-H1648",
    "QUANTITY_MEASURED": "pIC50",
    "TEST_VALUE": "< 5.30"
  },
  {
    "MOLECULE": "N[C@@H](CSC(c1ccccc1)(c1ccccc1)c1ccccc1)C(=O)O [S-TRITYL-L-CYSTEINE]",
    "TARGET_DESC": "NCI-H1648",
    "QUANTITY_MEASURED": "pIC50",
    "TEST_VALUE": 6.22
  },
  {
    "MOLECULE": "Nc1cccc2c1CN(C1CCC(=O)NC1=O)C2=O (stereo not drawn) [LENALIDOMIDE]",
    "TARGET_DESC": "NCI-H1648",
    "QUANTITY_MEASURED": "pIC50",
    "TEST_VALUE": "< 5.30"
  },
  {
    "MOLECULE": "COc1cc2c(Nc3ccc(NC(=O)c4ccccc4)cc3)ncnc2cc1OCCCN1CCOCC1",
    "TARGET_DESC": "NCI-H1648",
    "QUANTITY_MEASURED": "pIC50",
    "TEST_VALUE": "< 5.40"
  },
  {
    "MOLECULE": "CC[C@H](CO)Nc1nc(NCc2ccccc2)c2ncn(C(C)C)c2n1 [SELICICLIB]",
    "TARGET_DESC": "NCI-H1648",
    "QUANTITY_MEASURED": "pIC50",
    "TEST_VALUE": "< 4.80"
  },
  {
    "MOLECULE": "COc1cc(-c2nn([C@H]3CC[C@H](N4CCN(C(C)=O)CC4)CC3)c3ncnc(N)c23)ccc1NC(=O)c1cc2ccccc2n1C",
    "TARGET_DESC": "NCI-H1648",
    "QUANTITY_MEASURED": "pIC50",
    "TEST_VALUE": 6.41
  },
  {
    "MOLECULE": "COc1cc(N2CCN(C)CC2)ccc1Nc1ncc2c(n1)N(C)c1ccccc1C(=O)N2C",
    "TARGET_DESC": "NCI-H1648",
    "QUANTITY_MEASURED": "pIC50",
    "TEST_VALUE": "< 5.10"
  },
  {
    "MOLECULE": "C#Cc1cccc(Nc2ncnc3cc(OCCOC)c(OCCOC)cc23)c1 [ERLOTINIB]",
    "TARGET_DESC": "NCI-H1648",
    "QUANTITY_MEASURED": "pIC50",
    "TEST_VALUE": 7.40
  }
]

* * *

Each entry below carries its recorded pIC50.
# System: JAR;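 further: growth inhibition of human JAR cells determined with a cell viability assay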
# PROTOCOL_TEXT: cells
# Type: functional, cell-based, Homo sapiens
# RUN_PARAMETERS: Homo sapiens, JAR
# Description: SANGER: Inhibition of human JAR cell growth in a cell viability assay.
pIC50: −log10 of the molar value.

[
  {
    "MOLECULE": "COc1cc2c(Nc3ccc(NC(=O)c4ccccc4)cc3)ncnc2cc1OCCCN1CCOCC1",
    "pIC50": "< 5.40"
  },
  {
    "MOLECULE": "CN(C)C(=N)NC(=N)N",
    "pIC50": 2.04
  },
  {
    "MOLECULE": "Cn1cnc2c(F)c(Nc3ccc(Br)cc3Cl)c(C(=O)NOCCO)cc21",
    "pIC50": "< 5.40"
  },
  {
    "MOLECULE": "C=C(c1ccc(C(=O)O)cc1)c1cc2c(cc1C)C(C)(C)CCC2(C)C",
    "pIC50": "< 5.10"
  },
  {
    "MOLECULE": "CCN(CC)CCNC(=O)c1c(C)[nH]c(/C=C2\\C(=O)Nc3ccc(F)cc32)c1C",
    "pIC50": 5.40
  },
  {
    "MOLECULE": "CC(C)CCN1c2nc(Nc3cc(F)c(O)c(F)c3)ncc2N(C)C(=O)C1C (stereo unspecified)",
    "pIC50": "< 5.30"
  },
  {
    "MOLECULE": "CC(=O)O[C@H]1C(=O)[C@@]2(C)[C@H]([C@H](OC(=O)c3ccccc3)[C@]3(O)C[C@H](OC(=O)[C@H](O)[C@@H](NC(=O)c4ccccc4)c4ccccc4)C(C)=C1C3(C)C)[C@]1(OC(C)=O)CO[C@@H]1C[C@@H]2O",
    "pIC50": 7.53
  },
  {
    "MOLECULE": "Cc1cc([N+](=O)[O-])ccc1NS(=O)(=O)c1cc(Cl)ccc1Cl",
    "pIC50": 4.64
  },
  {
    "MOLECULE": "O=C(O)c1ccc(-c2c[nH]c3ncc(-c4ccccc4)cc23)cc1C1CCCC1",
    "pIC50": "< 4.80"
  },
  {
    "MOLECULE": "Nc1ccn([C@@H]2O[C@H](CO)[C@@H](O)C2(F)F)c(=O)n1",
    "pIC50": "< 5.99"
  },
  {
    "MOLECULE": "Cc1ccc(-c2c(C(=O)CCl)n(CCCO)c3ncnc(N)c23)cc1",
    "pIC50": "< 5.40"
  }
]

* * *

# Tested on: NCI-H1299;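 further: growth inhibition of human NCI-H1299 cells, read out by a cell viability assay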
# PROTOCOL_TEXT: cells
# Assay type: functional, cell-based, Homo sapiens
# RUN_PARAMETERS: Homo sapiens, NCI-H1299
# Description: SANGER: Inhibition of human NCI-H1299 cell growth in a cell viability assay.
pIC50: −log10 of the molar value.
Each entry below carries its recorded pIC50.
QUANTITY_MEASURED: pIC50

[
  {
    "MOLECULE": "Cc1cc([N+](=O)[O-])ccc1NS(=O)(=O)c1cc(Cl)ccc1Cl",
    "TARGET_DESC": "NCI-H1299",
    "SIGN_QUALIFIER": "=",
    "TEST_VALUE": 5.50
  },
  {
    "MOLECULE": "COc1cccc2c1C(=O)c1c(O)c3c(c(O)c1C2=O)C[C@@](O)(C(=O)CO)C[C@@H]3O[C@H]1C[C@H](N)[C@H](O)[C@H](C)O1 [DOXORUBICIN]",
    "TARGET_DESC": "NCI-H1299",
    "SIGN_QUALIFIER": "=",
    "TEST_VALUE": 7.42
  },
  {
    "MOLECULE": "CO[C@H]1C[C@@H]2CC[C@@H](C)[C@@](O)(O2)C(=O)C(=O)N2CCCC[C@H]2C(=O)O[C@H]([C@H](C)C[C@@H]2CC[C@@H](OC(=O)C(C)(CO)CO)[C@H](OC)C2)CC(=O)[C@H](C)/C=C(\\C)[C@@H](O)[C@@H](OC)C(=O)[C@H](C)C[C@H](C)/C=C/C=C/C=C/1C [TEMSIROLIMUS]",
    "TARGET_DESC": "NCI-H1299",
    "SIGN_QUALIFIER": "=",
    "TEST_VALUE": 6.73
  },
  {
    "MOLECULE": "CC(C)c1ccccc1Cc1cc(C(=O)Nc2ccc(S(=O)(=O)c3ccccc3C(C)(C)C)cc2)c(O)c(O)c1O",
    "TARGET_DESC": "NCI-H1299",
    "SIGN_QUALIFIER": "=",
    "TEST_VALUE": 6.55
  },
  {
    "MOLECULE": "Nc1cccc2c1CN(C1CCC(=O)NC1=O)C2=O (stereo unspecified) [LENALIDOMIDE]",
    "TARGET_DESC": "NCI-H1299",
    "SIGN_QUALIFIER": "<",
    "TEST_VALUE": 5.30
  },
  {
    "MOLECULE": "Cc1cn(-c2cc(NC(=O)c3ccc(C)c(Nc4nccc(-c5cccnc5)n4)c3)cc(C(F)(F)F)c2)cn1 [NILOTINIB]",
    "TARGET_DESC": "NCI-H1299",
    "SIGN_QUALIFIER": "<",
    "TEST_VALUE": 5.70
  }
]

* * *

Each entry below carries its recorded IC50.
# System: Lu-65
# PROTOCOL_TEXT: cells
# Format: functional, cell-based, Homo sapiens
# RUN_PARAMETERS: Homo sapiens, Lu-65
# Description: SANGER: Inhibition of human LU-65 cell growth in a cell viability assay.
Counter-ions that a name gives are not always drawn.

[
  {
    "COMPOUND": "COc1cccc2c1C(=O)c1c(O)c3c(c(O)c1C2=O)C[C@@](O)(C(=O)CO)C[C@@H]3O[C@H]1C[C@H](N)[C@H](O)[C@H](C)O1 [DOXORUBICIN]",
    "IC50": "346 nM"
  },
  {
    "COMPOUND": "Cc1ccc(-c2c(C(=O)CCl)n(CCCO)c3ncnc(N)c23)cc1",
    "IC50": "> 4000 nM"
  },
  {
    "COMPOUND": "Oc1ccc2ccccc2c1SSc1c(O)ccc2ccccc12",
    "IC50": "> 32000 nM"
  },
  {
    "COMPOUND": "OCCCNc1cc(-c2ccnc(Nc3cccc(Cl)c3)n2)ccn1",
    "IC50": "> 256 nM"
  },
  {
    "COMPOUND": "COC1=CC(c2cc3ccccc3[nH]2)=N/C1=C\\c1[nH]c(C)cc1C [OBATOCLAX MESYLATE]",
    "IC50": "1090 nM"
  },
  {
    "COMPOUND": "CCC/C=C/C=C/C(=O)O[C@H]1/C(=C/C(=O)OC)C[C@H]2C[C@H]([C@@H](C)O)OC(=O)C[C@H](O)C[C@@H]3C[C@H](OC(C)=O)C(C)(C)[C@](O)(C[C@@H]4C/C(=C/C(=O)OC)C[C@H](/C=C/C(C)(C)[C@]1(O)O2)O4)O3 [BRYOSTATIN 1]",
    "IC50": "> 8 nM"
  },
  {
    "COMPOUND": "CC(=O)O[C@H]1C(=O)[C@@]2(C)[C@H]([C@H](OC(=O)c3ccccc3)[C@]3(O)C[C@H](OC(=O)[C@H](O)[C@@H](NC(=O)c4ccccc4)c4ccccc4)C(C)=C1C3(C)C)[C@]1(OC(C)=O)CO[C@@H]1C[C@@H]2O [PACLITAXEL]",
    "IC50": "> 102 nM"
  },
  {
    "COMPOUND": "COc1cc2c(Nc3ccc(NC(=O)c4ccccc4)cc3)ncnc2cc1OCCCN1CCOCC1",
    "IC50": "> 4000 nM"
  },
  {
    "COMPOUND": "CC1(C)CNc2cc(NC(=O)c3cccnc3NCc3ccncc3)ccc21 [MOTESANIB]",
    "IC50": "> 2000 nM"
  },
  {
    "COMPOUND": "Cn1cnc2c(F)c(Nc3ccc(Br)cc3Cl)c(C(=O)NOCCO)cc21 [SELUMETINIB]",
    "IC50": "> 4000 nM"
  }
]
